experimentalSystem: NMDA receptor
testProtocol: [3H] MK-801 binding test on rat brain membrane specimen
pKi: −log10 of the molar value. Where a name gives a salt, the structure may show the parent alone.
Label scheme for pKi: lower than 6 is f, 6 and above is t.

Some solved entries appear below for comparison.
- molecule: "CC[C@]12CCCN[C@H]1c1cc(CO)ccc1C2"
  classification: "f"
- molecule: "C[C@]12CCCCN[C@@H]1c1ccccc1C2 (racemic) [Example 38-2, hydrochloride]"
  classification: "f"

I'd appreciate it if you could say whether C[C@@]12CCCN[C@@H]1c1ccccc1S2 (racemic) [Example 13, hydrochloride] has pKi at least equal to 6.
f

I'd appreciate it if you could say whether C[C@]12CCCN[C@H]1c1ccccc1C2 [Example 81, hydrochloride] has pKi at least equal to 6.
f

I'd appreciate it if you could say whether C[C@]12CCCCN[C@H]1c1ccccc1C2 (racemic) [Example 38-1, hydrochloride] has pKi at least equal to 6.
t

I'd appreciate it if you could say whether C[C@]12CCCN[C@H]1c1ccccc1C2 (racemic) [Example 22, hydrochloride] has pKi at least equal to 6.
f
